assayedTarget: RAC-alpha serine/threonine-protein kinase (Homo sapiens)
recordedMetric: pIC50
Note on pIC50: it is the negative log10 of concentration, concentration in mol/L.

Input line: Provide value of pIC50 for this record tested with RAC-alpha serine/threonine-protein kinase (Homo sapiens): CC(C)[C@H](NC(=O)[C@@H]1CC[C@H]2[C@H](NC(=O)[C@H](CCCN=C(N)N)NC(=O)OCc3ccccc3)COC(=O)N12)C(=O)NC(Cc1ccccc1)C(=O)NCc1ccccc1 (mixture of isomers)
Output line: 5.51

---

assayedTarget: RAC-alpha serine/threonine-protein kinase (Homo sapiens, UniProt P31749)
Sequence (P31749 whole entry, the tested form may be a part): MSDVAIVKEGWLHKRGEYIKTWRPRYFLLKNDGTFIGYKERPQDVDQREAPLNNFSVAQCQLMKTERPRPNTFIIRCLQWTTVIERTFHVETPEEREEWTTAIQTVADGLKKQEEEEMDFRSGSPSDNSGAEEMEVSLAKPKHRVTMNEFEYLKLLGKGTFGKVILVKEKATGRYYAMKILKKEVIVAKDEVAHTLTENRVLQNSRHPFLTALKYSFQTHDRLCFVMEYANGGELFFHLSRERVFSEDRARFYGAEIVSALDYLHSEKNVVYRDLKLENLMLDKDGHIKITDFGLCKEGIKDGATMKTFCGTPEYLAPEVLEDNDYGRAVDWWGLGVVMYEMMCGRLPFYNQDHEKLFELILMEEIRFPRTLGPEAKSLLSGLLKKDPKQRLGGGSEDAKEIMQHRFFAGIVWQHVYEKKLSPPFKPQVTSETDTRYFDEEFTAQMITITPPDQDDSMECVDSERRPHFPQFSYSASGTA
protocolText: Inhibition of His-tagged ATP-binding domain of AKT1 assessed as residual activity by measuring GRPRTSSFAEG crosstide phosphorylation at 50 uM using [33P]ATP
recordedMetric: Activity (%)
Give your result in % as a bare value.

Study these solved cases before continuing.
molecule	recordedMetric	unit	measuredValue
CC(C)[C@H](NC(=O)[C@@H]1CC[C@H]2[C@H](NC(=O)[C@H](CCCNC(=N)N)NC(=O)c3ccccc3)COC(=O)N12)C(=O)NC(Cc1ccccc1)C(=O)NCc1ccccc1 (mixture of isomers)	Activity	%	14.6
CC(C)[C@H](NC(=O)[C@@H]1CC[C@H]2[C@H](NC(=O)[C@H](CCCNC(=N)N)NC(=O)Cc3ccccc3)COC(=O)N12)C(=O)NC(Cc1ccccc1)C(=O)NCc1ccccc1 (mixture of isomers)	Activity	%	16.8
CC(C)[C@H](NC(=O)[C@@H]1CC[C@H]2[C@H](NC(=O)CCCCNC(=N)N)COC(=O)N12)C(=O)NC(Cc1ccccc1)C(=O)NCc1ccccc1 (mixture of isomers)	Activity	%	21.1
CC(C)[C@H](NC(=O)[C@@H]1CC[C@H]2[C@H](NC(=O)[C@H](CCCNC(=N)N)NC(=O)OCc3ccccc3)COC(=O)N12)C(=O)NC(Cc1ccccc1)C(=O)NCc1ccccc1 (mixture of isomers)	Activity	%	2.2

// below: Activity requested for another molecule
Input line: May I ask what Activity has been recorded for CC(C)[C@H](NC(=O)[C@@H]1CC[C@H]2[C@H](NC(=O)CNC(=N)N)COC(=O)N12)C(=O)NC(Cc1ccccc1)C(=O)NCc1ccccc1 (mixture of isomers) ?
Output line: 89.4
